System: HEK293T (UBE3A T485A transfected, BAR Wnt reporter)
Assay: Wnt reporter firefly/Renilla luciferase ratio relative to plate median (fold (linear ratio)); higher = more Wnt/beta-catenin reporter activation
Settings: concentration: 1 uM; 24 h
Over roughly 1,100 compounds, “Wnt reporter firefly/Renilla luciferase ratio relative to plate median” has its median near 1.1; the highest 2% begin near 1.6. Shown is part of a subset that was picked to be rich in the highest values.
Field: Wnt reporter firefly/Renilla luciferase ratio. Provide a value for each of the compounds that follow.
# output: bare number, no unit

Can you look up the measured Wnt reporter firefly/Renilla luciferase ratio of O=C(O)c1cn(C2CC2)c2cc(N3CCNCC3)c(F)cc2c1=O for me?
1.01

Can you look up the measured Wnt reporter firefly/Renilla luciferase ratio of O=c1ccn(C2OC(COP(=O)(O)OP(=O)(O)OP(=O)(O)O)C(O)C2O)c(=O)[nH]1 (centres undefined) for me?
1.15

Can you look up the measured Wnt reporter firefly/Renilla luciferase ratio of CC1COc2c(N3CCN(C)CC3)c(F)cc3c(=O)c(C(=O)O)cn1c23 (centres undefined) for me?
1.05

Can you look up the measured Wnt reporter firefly/Renilla luciferase ratio of CCN(Cc1c(F)cccc1Cl)c1c([N+](=O)[O-])cc(C(F)(F)F)cc1[N+](=O)[O-] for me?
1.11

// data source = the supplement of paper PMC9254222
